- target.or.system: DPD (Rattus norvegicus, UniProt O89000)
- Sequence (O89000 1-1025): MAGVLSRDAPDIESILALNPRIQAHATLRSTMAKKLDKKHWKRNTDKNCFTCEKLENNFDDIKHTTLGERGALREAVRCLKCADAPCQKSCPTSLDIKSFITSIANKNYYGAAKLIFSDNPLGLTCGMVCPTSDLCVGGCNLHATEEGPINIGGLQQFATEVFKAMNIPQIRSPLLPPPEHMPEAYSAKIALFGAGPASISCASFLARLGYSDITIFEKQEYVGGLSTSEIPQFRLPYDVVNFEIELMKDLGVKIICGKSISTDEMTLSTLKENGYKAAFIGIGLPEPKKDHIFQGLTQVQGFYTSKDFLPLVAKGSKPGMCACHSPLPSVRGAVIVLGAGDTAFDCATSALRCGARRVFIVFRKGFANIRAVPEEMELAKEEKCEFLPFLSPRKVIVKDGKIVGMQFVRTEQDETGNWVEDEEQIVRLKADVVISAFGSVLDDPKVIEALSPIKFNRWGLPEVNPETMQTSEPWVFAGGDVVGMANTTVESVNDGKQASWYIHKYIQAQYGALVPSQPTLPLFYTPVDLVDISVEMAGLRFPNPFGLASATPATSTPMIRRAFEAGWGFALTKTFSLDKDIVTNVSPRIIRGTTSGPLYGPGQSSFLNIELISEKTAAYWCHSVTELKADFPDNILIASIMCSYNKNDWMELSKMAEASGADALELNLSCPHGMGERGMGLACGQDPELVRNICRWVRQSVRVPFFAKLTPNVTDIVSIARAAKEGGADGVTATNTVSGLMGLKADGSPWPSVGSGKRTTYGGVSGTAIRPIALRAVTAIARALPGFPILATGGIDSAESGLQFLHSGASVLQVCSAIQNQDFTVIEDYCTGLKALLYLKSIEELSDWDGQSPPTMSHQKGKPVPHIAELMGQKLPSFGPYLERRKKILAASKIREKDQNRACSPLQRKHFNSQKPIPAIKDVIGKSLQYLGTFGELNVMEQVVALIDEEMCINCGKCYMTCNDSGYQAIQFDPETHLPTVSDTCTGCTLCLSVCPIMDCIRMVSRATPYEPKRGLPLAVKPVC
readout.kind: IC50

Request the reported IC50 associated with `CCOCn1cc(F)c(=O)n(C(=O)c2cccc(C(=O)Oc3cc(OC(=O)c4cc(OC(=O)CC)nc(OC(=O)CC)c4)c(Cl)cn3)c2)c1=O`
~500 nM

----------
- target.or.system: OPRT (Homo sapiens)
- Sequence (P11172 whole entry): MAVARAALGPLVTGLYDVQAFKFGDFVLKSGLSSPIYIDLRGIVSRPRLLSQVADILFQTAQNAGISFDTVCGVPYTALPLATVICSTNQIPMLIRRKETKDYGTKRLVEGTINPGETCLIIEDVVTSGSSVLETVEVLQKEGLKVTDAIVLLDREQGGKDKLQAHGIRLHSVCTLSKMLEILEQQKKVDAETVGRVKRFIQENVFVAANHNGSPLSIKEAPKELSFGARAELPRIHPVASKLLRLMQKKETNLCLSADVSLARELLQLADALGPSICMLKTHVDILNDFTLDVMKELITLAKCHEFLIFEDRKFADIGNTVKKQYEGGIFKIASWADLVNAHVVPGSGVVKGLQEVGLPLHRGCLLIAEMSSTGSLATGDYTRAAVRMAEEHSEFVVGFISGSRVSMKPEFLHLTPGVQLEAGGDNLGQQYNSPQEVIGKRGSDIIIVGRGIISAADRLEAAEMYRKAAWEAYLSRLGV
readout.kind: IC50

Request the reported IC50 associated with CCOCn1cc(F)c(=O)n(C(=O)c2cccc(C(=O)Oc3cc(OC(=O)c4cc(OC(=O)CC)nc(OC(=O)CC)c4)c(Cl)cn3)c2)c1=O [Compound I-11]
~15 µM

----------
- System: sarcoma 180 cells
- assay.remarks: Inhibition of intracellular phosphorylation of 5-FU in cancer cells
- Format: cell-based, mouse
- conditions.used: Conc. 100 μM; 30 min. Incubation; 5-FU 2 μM; Table 6
- Description: • (a) Test liquid preparation 1: Compound I-2 or I-10 of the present invention was dissolved to a concentration of 1 mM in cold physiological saline. […] The radioactivity thereof was measured and the concentration of 5-FU phosphorylation was measured. […]
Please note: RNA Fraction exactly at 30 pmol/1 × 10^7 cells is criterion not met. Only values below 30 pmol/1 × 10^7 cells get criterion met.

Use these answered entries as a reference point.
> print(dat)
                                   molecule   target.or.system  assigned.category
1  CCOCn1cc(F)c(=O)n(C(=O)c2cccc(C(=O)Oc3cc(OC(=O)c4cc(OC(=O)C5CCCC5)nc(OC(=O)C5CCCC5)c4)c(Cl)cn3)c2)c1=O [Compound I-9]  sarcoma 180 cells      criterion met
2  O=C(O)c1cc(O)nc(O)c1 [Citra. A., citrazinic acid, reference compound]  sarcoma 180 cells  criterion not met

Dear reviewer, please state whether CCOCn1cc(F)c(=O)n(C(=O)c2cccc(C(=O)Oc3cc(OC(=O)c4ccc(OC(=O)c5ccccc5)nc4OC(=O)c4ccccc4)c(Cl)cn3)c2)c1=O [Compound I-13] has RNA Fraction strictly beneath 30 pmol/1 × 10^7 cells.
criterion met

Same again, this time with CCOCn1cc(F)c(=O)n(C(=O)c2cccc(C(=O)Oc3cc(OC(=O)c4cc(OC(=O)CC)nc(OC(=O)CC)c4)c(Cl)cn3)c2)c1=O [Compound I-11]
criterion met

Same again, this time with CCOCn1cc(F)c(=O)n(C(=O)c2cccc(C(=O)Oc3cc(OC(=O)c4cc(OC(=O)C(C)(C)C)nc(OC(=O)C(C)(C)C)c4)c(Cl)cn3)c2)c1=O [Compound I-12]
criterion met
